procedureSummary: AUC (0 to 72 hrs) in Wistar rat plasma at 30 mg/kg, po by HPLC analysis
Type: ADME, organism-based
Design: time < 72 hr, dose 30 mg/kg, route oral
parameterMeasured: AUC(0-t) at 72 h (ng·h/mL)
API: value field is a number in ng·h/mL; no unit string.

Please report the recorded AUC(0-t) at 72 h for CCCCC1=NC2(CCCC2)C(=O)N1Cc1ccc2c(ccn2-c2ccccc2-c2nnn[nH]2)c1 .
89500

----------
procedureSummary: Cmax in Wistar rat spleen at 10 mg/kg, po by HPLC analysis
Assay type: ADME, organism-based
Set-up: dose 10 mg/kg, route oral
parameterMeasured: Cmax (ng/mL)
Answer format: numeric, ng/mL implied, no suffix.

Which measured Cmax value corresponds to CCCCC1=NC2(CCCC2)C(=O)N1Cc1ccc2c(ccn2-c2ccccc2-c2nnn[nH]2)c1 ?
348

----------
procedureSummary: Cmax in Wistar rat lung at 30 mg/kg, po by HPLC analysis
Format: ADME, organism-based
Parameters: dose 30 mg/kg, route oral
parameterMeasured: Cmax
Quick note: unit goes after the number.

# lookup: Cmax of CCCCC1=NC2(CCCC2)C(=O)N1Cc1ccc2c(ccn2-c2ccccc2-c2nnn[nH]2)c1
0.396 µg/mL

----------
procedureSummary: Tmax in Wistar rat brain at 15 mg/kg, po by HPLC analysis
Format: ADME, organism-based
parameterMeasured: Tmax (h)
Numeric answer only, unit h assumed.

Which Tmax reading was recorded for the compound CCCCC1=NC2(CCCC2)C(=O)N1Cc1ccc2c(ccn2-c2ccccc2-c2nnn[nH]2)c1 ?
4.83

----------
procedureSummary: Cmax in Wistar rat brain at 10 mg/kg, po by HPLC analysis
Type: ADME, organism-based
Set-up: dose 10 mg/kg, route oral
parameterMeasured: Cmax
Don't forget the unit after the value.

Return reported Cmax; argument: CCCCC1=NC2(CCCC2)C(=O)N1Cc1ccc2c(ccn2-c2ccccc2-c2nnn[nH]2)c1
37.2 ng/mL

----------
procedureSummary: Tmax in Wistar rat Heart at 10 mg/kg, po by HPLC analysis
Type: ADME, organism-based
parameterMeasured: Tmax
Just so you know, I need the unit written after the number.

For CCCCC1=NC2(CCCC2)C(=O)N1Cc1ccc2c(ccn2-c2ccccc2-c2nnn[nH]2)c1 , what is its reported Tmax?
4 h

----------
procedureSummary: Toxicity in ICR mouse assessed as mortality at 2343.75 mg/kg, ig after 2 weeks
Format: organism-based
conditionLabel: in vivo, po
parameterMeasured: mortality at 336 h

// lookup mortality at 336 h for CCCCC1=NC2(CCCC2)C(=O)N1Cc1ccc2c(ccn2-c2ccccc2-c2nnn[nH]2)c1
80%

----------
procedureSummary: MRT (0 to 72 hrs) in Wistar rat liver at 30 mg/kg, po by HPLC analysis
Format: ADME, organism-based
parameterMeasured: MRT last (h)
API: value field is a number in h; no unit string.

// query MRT last value for entry CCCCC1=NC2(CCCC2)C(=O)N1Cc1ccc2c(ccn2-c2ccccc2-c2nnn[nH]2)c1
6.3

----------
procedureSummary: Half life in Wistar rat liver at 10 mg/kg, po by HPLC analysis
Type: ADME, organism-based
parameterMeasured: half-life (min)
Give the quantity in min, number only.

Return reported half-life; argument: CCCCC1=NC2(CCCC2)C(=O)N1Cc1ccc2c(ccn2-c2ccccc2-c2nnn[nH]2)c1
140

----------
procedureSummary: MRT (0 to 72 hrs) in Wistar rat lung at 10 mg/kg, po by HPLC analysis
Type: ADME, organism-based
parameterMeasured: MRT last (h)
Write the number in h without appending the unit.

Sample CCCCC1=NC2(CCCC2)C(=O)N1Cc1ccc2c(ccn2-c2ccccc2-c2nnn[nH]2)c1 — what was its MRT last?
10.6

Hey, just so you know, these numbers are from ChEMBL document CHEMBL3872205.
